Recorded pKi for the following compounds
Target sequence: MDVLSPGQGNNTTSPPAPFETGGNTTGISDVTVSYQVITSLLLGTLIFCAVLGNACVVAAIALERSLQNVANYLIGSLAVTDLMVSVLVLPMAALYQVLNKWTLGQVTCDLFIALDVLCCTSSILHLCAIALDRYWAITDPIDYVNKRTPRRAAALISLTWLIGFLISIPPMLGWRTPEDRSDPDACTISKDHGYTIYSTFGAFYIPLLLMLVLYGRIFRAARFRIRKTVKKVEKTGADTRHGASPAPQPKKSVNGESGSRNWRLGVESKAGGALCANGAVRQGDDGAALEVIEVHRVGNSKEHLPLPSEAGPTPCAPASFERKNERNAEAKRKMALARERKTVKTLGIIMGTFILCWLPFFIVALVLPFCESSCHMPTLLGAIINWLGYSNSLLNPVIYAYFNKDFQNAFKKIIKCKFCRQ
Lab note — pKi values are minus log10 of concentrations in M.

Illustrative cases are given below, each with its answer.
N#Cc1ccc2[nH]cc(CCCCN3CCN(c4ncc(-c5ccc(Cl)cc5)cn4)CC3)c2c1 | 7.89
N#Cc1ccc2[nH]cc(CCCCN3CCN(c4ncc(-c5ccc(C(N)=O)cc5)cn4)CC3)c2c1 | 8.07
COc1cc(F)ccc1-c1cnc(N2CCN(CCCCc3c[nH]c4ccc(C#N)cc34)CC2)nc1 | 7.96

Exam item: Please give the measured pKi for this compound: COc1ccccc1-c1cnc(N2CCN(CCCc3c[nH]c4ccc(C#N)cc34)CC2)nc1
Marked response: 8.47

Exam item: Item under review: N#Cc1ccc2[nH]cc(CCCCN3CCN(c4ncc(-c5cccc(C(N)=O)c5)cn4)CC3)c2c1 . Reported pKi?
Marked response: 8.54

====

assay: Pharmacokinetic evaluation in rats after intravenous or gavage administration; assay type: in vivo, SD rats; conditions: SD, rat, plasma, po, 2.5 mg/kg
# Lookup of reported Cmax keyed by entry
The reply should consist of the numeric value with the unit placed after it.

N#Cc1ccc2[nH]cc(CCCN3CCN(c4ncc(-c5cccc(C(N)=O)c5)cn4)CC3)c2c1 | 241 ng/mL
N#Cc1ccc2[nH]cc(CCCCN3CCN(c4ncc(-c5ccc(F)cc5)cn4)CC3)c2c1 | 194 ng/mL
N#Cc1ccc2[nH]cc(CCCN3CCN(c4ncc(-c5ccc(F)cc5F)cn4)CC3)c2c1 | 180 ng/mL
N#Cc1ccc2[nH]cc(CCCCN3CCN(c4ncc(-c5ccc(F)cc5F)cn4)CC3)c2c1 | 152 ng/mL
N#Cc1ccc2[nH]cc(CCCN3CCN(c4ncc(-c5ccc(Cl)cc5)cn4)CC3)c2c1 | 207 ng/mL

Next item in the queue.
Exam item: Request the reported Cmax associated with N#Cc1ccc2[nH]cc(CCCN3CCN(c4ncc(-c5ccc(F)cc5)cn4)CC3)c2c1
Marked response: 180 ng/mL

====

experiment: Pharmacokinetic evaluation in rats after intravenous or gavage administration; type: in vivo, SD rats; conditions: SD, rat, plasma, iv, 1 mg/kg, read-out: Vss
measurementLabel: Vd (L/kg)
Hi! Could you send only the number? It should be in L/kg, unit omitted.

Solved entries (count: 5):
N#Cc1ccc2[nH]cc(CCCCN3CCN(c4ncc(-c5ccc(F)cc5F)cn4)CC3)c2c1 [Example 13] | 6
N#Cc1ccc2[nH]cc(CCCCN3CCN(c4ncc(-c5ccc(F)cc5)cn4)CC3)c2c1 [Example 7] | 5.03
N#Cc1ccc2[nH]cc(CCCN3CCN(c4ncc(-c5cccc(C(N)=O)c5)cn4)CC3)c2c1 [Example 2] | 2.33
N#Cc1ccc2[nH]cc(CCCN3CCN(c4ncc(-c5ccc(Cl)cc5)cn4)CC3)c2c1 [Example 12] | 5.46
N#Cc1ccc2[nH]cc(CCCN3CCN(c4ncc(-c5ccc(F)cc5)cn4)CC3)c2c1 [Example 8] | 6.01

Would you kindly look at the next entry?
Exam item: Returns the measured Vd for the input compound. Input: N#Cc1ccc2[nH]cc(CCCN3CCN(c4ncc(-c5ccc(F)cc5F)cn4)CC3)c2c1 [Example 14]
Marked response: 6.41

====

Assay: Pharmacokinetic evaluation in rats after intravenous or gavage administration
Assay type: in vivo, SD rats
Conditions: SD, rat, plasma, iv, 1 mg/kg
Procedure: The pharmacokinetic evaluation of the compound disclosed herein in rats, dogs and monkeys was carried out in this invention, and animal information as described in Table 1. The compounds disclosed herein were administered in form of a saline solution containing 5% DMSO, 5% Kolliphor HS 15, 2% (2% HCl) and 88% Saline, or a physiological saline solution containing 10% DMSO, 10% Kolliphor HS 15 and 80% physiological saline to an animal subject. […] The above plasma was analyzed by the LC/MS/MS system. […]
# if value of AUC(0-inf) reaches 1000 ng·h/mL, tag t; if it stays below, tag f

# example entries with known answers
N#Cc1ccc2[nH]cc(CCCN3CCN(c4ncc(-c5ccc(Cl)cc5)cn4)CC3)c2c1 | t
N#Cc1ccc2[nH]cc(CCCN3CCN(c4ncc(-c5ccc(F)cc5F)cn4)CC3)c2c1 | t
N#Cc1ccc2[nH]cc(CCCN3CCN(c4ncc(-c5ccc(F)cc5)cn4)CC3)c2c1 | t
N#Cc1ccc2[nH]cc(CCCCN3CCN(c4ncc(-c5ccc(F)cc5F)cn4)CC3)c2c1 | f

--- query ---
Exam item: Is AUC(0-inf) for N#Cc1ccc2[nH]cc(CCCN3CCN(c4ncc(-c5cccc(C(N)=O)c5)cn4)CC3)c2c1 at or above 1000 ng·h/mL?
Marked response: f

====

The entries below are paired with their reported clearance.
Test: Pharmacokinetic evaluation in rats after intravenous or gavage administration
Type: in vivo, SD rats
Conditions: SD, rat, plasma, iv, 1 mg/kg
Description: The pharmacokinetic evaluation of the compound disclosed herein in rats, dogs and monkeys was carried out in this invention, and animal information as described in Table 1. The compounds disclosed herein were administered in form of a saline solution containing 5% DMSO, 5% Kolliphor HS 15, 2% (2% HCl) and 88% Saline, or a physiological saline solution containing 10% DMSO, 10% Kolliphor HS 15 and 80% physiological saline to an animal subject. […] The above plasma was analyzed by the LC/MS/MS system. […]
Provide the reading as a plain figure in mL/min/kg.

Exam item: Form field: reported clearance of N#Cc1ccc2[nH]cc(CCCCN3CCN(c4ncc(-c5ccc(F)cc5)cn4)CC3)c2c1
Marked response: 16.7

Exam item: Report clearance for N#Cc1ccc2[nH]cc(CCCN3CCN(c4ncc(-c5ccc(F)cc5)cn4)CC3)c2c1 please.
Marked response: 13.4

Exam item: clearance lookup needed for N#Cc1ccc2[nH]cc(CCCN3CCN(c4ncc(-c5cccc(C(N)=O)c5)cn4)CC3)c2c1 , thanks.
Marked response: 22.9

Exam item: Requested field: clearance. Item: N#Cc1ccc2[nH]cc(CCCCN3CCN(c4ncc(-c5ccc(F)cc5F)cn4)CC3)c2c1
Marked response: 23.8

Exam item: Query (compound): N#Cc1ccc2[nH]cc(CCCN3CCN(c4ncc(-c5ccc(Cl)cc5)cn4)CC3)c2c1 ; field requested: clearance
Marked response: 7.5

Exam item: Which value of clearance has been reported for N#Cc1ccc2[nH]cc(CCCN3CCN(c4ncc(-c5ccc(F)cc5F)cn4)CC3)c2c1 in the records?
Marked response: 11.6

====

experiment: Pharmacokinetic evaluation in rats after intravenous or gavage administration; format: in vivo, SD rats; details: SD, rat, plasma, po, 2.5 mg/kg
measurementLabel: AUC(0-t) (ng·h/mL)
// return numeric value only (unit: ng·h/mL, not printed)

N#Cc1ccc2[nH]cc(CCCN3CCN(c4ncc(-c5ccc(F)cc5F)cn4)CC3)c2c1 | 2790
N#Cc1ccc2[nH]cc(CCCN3CCN(c4ncc(-c5cccc(C(N)=O)c5)cn4)CC3)c2c1 | 706
N#Cc1ccc2[nH]cc(CCCCN3CCN(c4ncc(-c5ccc(F)cc5)cn4)CC3)c2c1 | 1960
N#Cc1ccc2[nH]cc(CCCN3CCN(c4ncc(-c5ccc(Cl)cc5)cn4)CC3)c2c1 | 2950
N#Cc1ccc2[nH]cc(CCCCN3CCN(c4ncc(-c5ccc(F)cc5F)cn4)CC3)c2c1 | 1070

Now for a further compound.
Exam item: Entry under review: N#Cc1ccc2[nH]cc(CCCN3CCN(c4ncc(-c5ccc(F)cc5)cn4)CC3)c2c1 . Reported AUC(0-t)?
Marked response: 2140

====

Measurement record for 5-HT1A receptors (Homo sapiens, UniProt P08908); quantity recorded: Ki.
Respond numerically; units are nM and should not be typed.

Exam item: Which measured Ki value corresponds to N#Cc1ccc2[nH]cc(CCCCN3CCN(c4ncc(-c5ccc(F)cc5)cn4)CC3)c2c1 ?
Marked response: 3.7

Exam item: Field request: Ki | item: N#Cc1ccc2[nH]cc(CCCCN3CCN(c4ncc(-c5ccc(F)cc5F)cn4)CC3)c2c1
Marked response: 1.3

Exam item: Which Ki is reported for this compound? COc1ccccc1-c1cnc(N2CCN(CCCCc3c[nH]c4ccc(C#N)cc34)CC2)nc1
Marked response: 2.7

Origin of values: patent US10316025B2
